Below, each entry is listed with its recorded %SURVIVAL.
Tested on: C. albicans C-43
Assay protocol: Candida systemic model in CF1 mice infected IV with C. albicans C-43, oral treatment
Type: in vivo
Assay context: 50 MPK PO in PEG-200, 1 a day x 4 days; day 4 post-infection
Give just the numeric value; % need not be written.

Solved entries:
CC[C@@H](C)n1ncn(-c2ccc(N3CCN(c4ccc(OC[C@@H]5CO[C@@](Cn6cncn6)(c6ccc(F)cc6F)C5)cc4)CC3)cc2)c1=O :: 90
CC[C@@H](C)n1ncn(-c2ccc(N3CCN(c4ccc(OC[C@H]5CO[C@](Cn6cncn6)(c6ccc(F)cc6F)C5)cc4)CC3)cc2)c1=O :: 20
CCC(C)n1ncn(-c2ccc(N3CCN(c4ccc(OC[C@H]5CO[C@](Cn6cncn6)(c6ccc(F)cc6F)O5)cc4)CC3)cc2)c1=O (stereo partly drawn) [Saperconazole, reference compound] :: 20
CC[C@H](C)n1ncn(-c2ccc(N3CCN(c4ccc(OC[C@H]5CO[C@](Cn6cncn6)(c6ccc(F)cc6F)C5)cc4)CC3)cc2)c1=O :: 0
CC[C@H](C)n1ncn(-c2ccc(N3CCN(c4ccc(OC[C@@H]5CO[C@@](Cn6cncn6)(c6ccc(F)cc6F)C5)cc4)CC3)cc2)c1=O :: 100

Please turn your attention to the following entry.
Input: Give %SURVIVAL for CCC(C)n1ncn(-c2ccc(N3CCN(c4ccc(OCC5COC(Cn6cncn6)(c6ccc(Cl)cc6Cl)O5)cc4)CC3)cc2)c1=O (stereo not drawn) [Itraconazole, reference compound] tested on C. albicans C-43.
Output: 60

###

System: C. albicans C-43
Assay protocol: Candida systemic model in CF1 mice infected IV with C. albicans C-43, oral treatment
Type: in vivo
Assay context: 50 MPK PO in PEG-200; day 4; geometric mean of the logarithms of CFU remaining in the kidneys (dead mice counted as 10^9)
Readout: CFUs (GM)
# print the numeric value only

CC[C@H](C)n1ncn(-c2ccc(N3CCN(c4ccc(OC[C@H]5CO[C@](Cn6cncn6)(c6ccc(F)cc6F)C5)cc4)CC3)cc2)c1=O [Example 25] :: 9.00
CC[C@@H](C)n1ncn(-c2ccc(N3CCN(c4ccc(OC[C@H]5CO[C@](Cn6cncn6)(c6ccc(F)cc6F)C5)cc4)CC3)cc2)c1=O [Example 26] :: 7.84
CC[C@H](C)n1ncn(-c2ccc(N3CCN(c4ccc(OC[C@@H]5CO[C@@](Cn6cncn6)(c6ccc(F)cc6F)C5)cc4)CC3)cc2)c1=O [Example 24] :: 4.99
CCC(C)n1ncn(-c2ccc(N3CCN(c4ccc(OCC5COC(Cn6cncn6)(c6ccc(Cl)cc6Cl)O5)cc4)CC3)cc2)c1=O (stereo not drawn) [Itraconazole, reference compound] :: 6.68

Input: Report the value of CFUs (GM) obtained on C. albicans C-43 for CCC(C)n1ncn(-c2ccc(N3CCN(c4ccc(OC[C@H]5CO[C@](Cn6cncn6)(c6ccc(F)cc6F)O5)cc4)CC3)cc2)c1=O (stereo partly drawn) [Saperconazole, reference compound] .
Output: 8.20

Input: // fetch CFUs (GM) for CC[C@@H](C)n1ncn(-c2ccc(N3CCN(c4ccc(OC[C@@H]5CO[C@@](Cn6cncn6)(c6ccc(F)cc6F)C5)cc4)CC3)cc2)c1=O [Example 23] ; system: C. albicans C-43
Output: 5.62

###

System: Aspergillus flavus
Assay protocol: Aspergillus flavus pulmonary infection model in compromised mice, oral treatment
Type: in vivo
Assay context: 100 mg/kg PO once a day for 4 days; 18 days post infection; negative = <10 colonies
Readout: %ANIMALS NEG (%)
The answer is to be given in %; state only the numeric part.

Would you please look over these solved cases?
CC[C@H](C)n1ncn(-c2ccc(N3CCN(c4ccc(OC[C@@H]5CO[C@@](Cn6cncn6)(c6ccc(F)cc6F)C5)cc4)CC3)cc2)c1=O [Example 24] :: 20
CCC(C)n1ncn(-c2ccc(N3CCN(c4ccc(OCC5COC(Cn6cncn6)(c6ccc(Cl)cc6Cl)O5)cc4)CC3)cc2)c1=O (stereo not shown) [Itraconazole, reference compound] :: 0
CC[C@@H](C)n1ncn(-c2ccc(N3CCN(c4ccc(OC[C@H]5CO[C@](Cn6cncn6)(c6ccc(F)cc6F)C5)cc4)CC3)cc2)c1=O [Example 26] :: 0
OC(Cn1cncn1)(Cn1cncn1)c1ccc(F)cc1F [Fluconazole, reference compound] :: 0
CC[C@H](C)n1ncn(-c2ccc(N3CCN(c4ccc(OC[C@H]5CO[C@](Cn6cncn6)(c6ccc(F)cc6F)C5)cc4)CC3)cc2)c1=O [Example 25] :: 0
CC[C@@H](C)n1ncn(-c2ccc(N3CCN(c4ccc(OC[C@@H]5CO[C@@](Cn6cncn6)(c6ccc(F)cc6F)C5)cc4)CC3)cc2)c1=O [Example 23] :: 10

Input: Give a short answer stating reported %ANIMALS NEG for CCC(C)n1ncn(-c2ccc(N3CCN(c4ccc(OC[C@H]5CO[C@](Cn6cncn6)(c6ccc(F)cc6F)O5)cc4)CC3)cc2)c1=O (stereo partly shown) [Saperconazole, reference compound] .
Output: 0

###

Tested on: C. albicans C-65
Assay protocol: Candida systemic model in normal and compromised CF1 mice infected with C. albicans C-65, oral treatment
Assay type: in vivo
Assay context: 600 Rads Mice (compromised); 10 MPK PO in PEG-200; day 4; geometric mean of the logarithms of CFU in the kidneys
Below, each entry is listed alongside its reported CFUs (GM).
A bare number is all that is needed in reply.

# annotated cases, reported CFUs (GM) shown
OC(Cn1cncn1)(Cn1cncn1)c1ccc(F)cc1F [Fluconazole, reference compound] :: 8.01
CC[C@H](C)n1ncn(-c2ccc(N3CCN(c4ccc(OC[C@@H]5CO[C@@](Cn6cncn6)(c6ccc(F)cc6F)C5)cc4)CC3)cc2)c1=O :: 9.00
CC[C@@H](C)n1ncn(-c2ccc(N3CCN(c4ccc(OC[C@@H]5CO[C@@](Cn6cncn6)(c6ccc(F)cc6F)C5)cc4)CC3)cc2)c1=O :: 9.00

Input: Provide CFUs (GM), recorded with C. albicans C-65, of CCC(C)n1ncn(-c2ccc(N3CCN(c4ccc(OCC5COC(Cn6cncn6)(c6ccc(Cl)cc6Cl)O5)cc4)CC3)cc2)c1=O (stereo not shown) [Itraconazole, reference compound]
Output: 9.00

###

Reported %SURVIVAL is given for each of the following molecules.
Test system: C. albicans C-43
Assay protocol: Candida systemic model in CF1 mice infected IV with C. albicans C-43, oral treatment
Type: in vivo
Assay context: 10 MPK PO in PEG-200, 1 a day x 4 days; day 4 post-infection
The response must be a number in % with no trailing unit.

# annotated cases, reported %SURVIVAL shown
CC[C@H](C)n1ncn(-c2ccc(N3CCN(c4ccc(OC[C@@H]5CO[C@@](Cn6cncn6)(c6ccc(F)cc6F)C5)cc4)CC3)cc2)c1=O :: 40
CC[C@@H](C)n1ncn(-c2ccc(N3CCN(c4ccc(OC[C@H]5CO[C@](Cn6cncn6)(c6ccc(F)cc6F)C5)cc4)CC3)cc2)c1=O :: 0
CC[C@@H](C)n1ncn(-c2ccc(N3CCN(c4ccc(OC[C@@H]5CO[C@@](Cn6cncn6)(c6ccc(F)cc6F)C5)cc4)CC3)cc2)c1=O :: 50
CC[C@H](C)n1ncn(-c2ccc(N3CCN(c4ccc(OC[C@H]5CO[C@](Cn6cncn6)(c6ccc(F)cc6F)C5)cc4)CC3)cc2)c1=O :: 0

Now consider a different molecule.
Input: Name the recorded %SURVIVAL of the item CCC(C)n1ncn(-c2ccc(N3CCN(c4ccc(OCC5COC(Cn6cncn6)(c6ccc(Cl)cc6Cl)O5)cc4)CC3)cc2)c1=O (centres unmarked) [Itraconazole, reference compound] in your answer.
Output: 0
